Assay Overview: Cytotoxicity against african green monkey BGMK cells after 24 hrs by MTT assay
Assay type: cell-based
Condition Description: chlorocebus aethiops, read-out: LD50
Assign CC50 at 24 h to each entry below.

Form field: reported CC50 at 24 h of "Cc1ccc(S(=O)(=O)N[C@@H](Cc2ccccc2)[C@H](O)CSc2ccccn2)cc1"
192 µg/mL

Next record, please: "CC(C)(C)OC(=O)N[C@@H](Cc1ccccc1)[C@H](O)CSc1ccccn1"
> 200 µg/mL

What do we get for "O=[N+]([O-])c1ccc(S(=O)(=O)N[C@@H](Cc2ccccc2)[C@H](O)CSc2ncccn2)cc1" ?
> 200 µg/mL

Consider next the compound "CC(C)(C)OC(=O)N[C@@H](Cc1ccccc1)[C@H](O)CSc1ncccn1" in the same way.
170 µg/mL

Check "O=[N+]([O-])c1ccc(S(=O)(=O)N[C@@H](Cc2ccccc2)[C@H](O)CSc2ccccn2)cc1" too.
> 200 µg/mL

For "O=S(=O)(N[C@@H](Cc1ccccc1)[C@H](O)CSc1ncccn1)c1ccc(Br)cc1" then?
99 µg/mL
